tested_system: UniProt P21453
Sequence (P21453 whole entry): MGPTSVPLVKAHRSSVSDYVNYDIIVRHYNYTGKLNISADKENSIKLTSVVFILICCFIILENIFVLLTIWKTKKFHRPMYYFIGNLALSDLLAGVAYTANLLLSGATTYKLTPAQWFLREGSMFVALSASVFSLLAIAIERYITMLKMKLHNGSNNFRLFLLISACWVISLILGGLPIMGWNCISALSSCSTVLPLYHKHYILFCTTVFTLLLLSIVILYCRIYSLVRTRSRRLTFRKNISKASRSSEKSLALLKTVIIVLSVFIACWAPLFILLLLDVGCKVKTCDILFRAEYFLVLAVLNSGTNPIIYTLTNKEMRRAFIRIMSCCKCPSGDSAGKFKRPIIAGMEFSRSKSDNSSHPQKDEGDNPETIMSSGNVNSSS
protocol_summary: hS1P1R GTPγS binding assay (Assay 3a)
metric: EC50

For this compound ( `CC(C)Oc1ccc(-c2nnc(-c3cc(F)c(OC[C@@H](N)CO)cc3Cl)s2)cc1Br` ), measured EC50 is ≤ 0.01 µM

For this compound ( `CC(C)N(C)c1cc(-c2nnc(-c3cc(F)c(OC[C@H](N)CO)cc3Cl)s2)cc(Cl)n1` ), measured EC50 is 0.05 to 0.25 µM

For this compound ( NC(CO)COc1cc(Cl)c(-c2nnc(-c3cn4ccsc4n3)s2)cc1F (centres unmarked) ), measured EC50 is > 10 µM

For this compound ( `N[C@H](CO)COc1cc(Cl)c(-c2nnc(-c3ccc(OC(F)(F)F)cc3)s2)cc1F` ), measured EC50 is 0.05 to 0.25 µM

For this compound ( `Cc1cc(-c2nnc(-c3cc(F)c(OC[C@@H](N)[C@@H](C)O)cc3Cl)s2)cnc1NC(C)C` ), measured EC50 is 0.01 to 0.05 µM

For this compound ( `CC(C)Oc1ccc(-c2nnc(-c3cc(F)c(OC[C@H](N)[C@@H](C)O)cc3Cl)s2)cc1C#N` ), measured EC50 is ≤ 0.01 µM

For this compound ( `CC(C)Oc1ccc(-c2nnc(-c3cc(F)c(OC[C@@H](N)[C@H](C)O)cc3Cl)s2)cc1C#N` ), measured EC50 is ≤ 0.01 µM

For this compound ( `CC(C)Oc1ccc(-c2nnc(-c3cc(F)c(OC[C@@H](N)[C@@H](C)O)cc3Cl)s2)cc1C#N` ), measured EC50 is ≤ 0.01 µM

###

So I've got a bunch of compounds here, and I need their EC50 values.
tested_system: S1P1 (Homo sapiens, UniProt P21453)
Construct: host or cells: U2OS
Sequence (P32121 whole entry): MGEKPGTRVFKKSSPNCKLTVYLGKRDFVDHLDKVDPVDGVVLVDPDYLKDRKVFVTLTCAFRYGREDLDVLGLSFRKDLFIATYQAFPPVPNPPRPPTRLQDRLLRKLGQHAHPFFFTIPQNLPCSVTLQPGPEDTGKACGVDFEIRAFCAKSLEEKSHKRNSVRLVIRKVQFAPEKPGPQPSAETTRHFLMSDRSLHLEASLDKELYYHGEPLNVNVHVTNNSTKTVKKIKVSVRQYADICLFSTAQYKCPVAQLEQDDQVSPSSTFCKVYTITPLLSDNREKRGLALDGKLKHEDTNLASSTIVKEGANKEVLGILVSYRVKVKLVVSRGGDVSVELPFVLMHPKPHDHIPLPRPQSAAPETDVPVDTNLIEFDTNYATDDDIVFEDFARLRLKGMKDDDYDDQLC
Sequence (P21453 whole entry): as the sequence (P21453 whole entry) above
protocol_summary: Tango β-arrestin recruitment assay in U2OS cells (Assay 2b)
Assay type: cell-based
condition_details: * = rEC50 measured rather than EC50, read-out: Assay 2b rEC50 (relative EC50, cells marked *)

For this compound ( `CC(C)Nc1ccc(-c2nnc(-c3cc(F)c(OC[C@@H](N)[C@H](C)OP(=O)(O)O)cc3Cl)s2)cn1` ), measured EC50 is ≤ 10 nM

For this compound ( `Cc1cc(-c2nnc(-c3cc(F)c(OC[C@H](N)[C@@H](C)OP(=O)(O)O)cc3Cl)s2)cc(NC(C)C)n1` ), measured EC50 is ≤ 10 nM

For this compound ( `CC(C)Oc1ccc(-c2nnc(-c3cc(F)c(OC[C@H](N)CO)cc3Cl)s2)cc1C(N)=O` ), measured EC50 is 250 to 2800 nM

For this compound ( `CC(C)Nc1ncc(-c2nnc(-c3cc(F)c(OC[C@@H](N)CO)cc3Cl)s2)cn1` ), measured EC50 is ≤ 10 nM

For this compound ( `Cc1cc(-c2nnc(-c3cc(F)c(OC[C@H](N)[C@H](C)O)cc3Cl)s2)cnc1NC(C)C` ), measured EC50 is 250 to 2800 nM

For this compound ( `CC(C)Oc1ccc(-c2nnc(-c3cc(F)c(OC[C@@H](N)[C@H](C)O)cc3Cl)s2)cc1Cl` ), measured EC50 is ≤ 10 nM

For this compound ( `Cc1cc(-c2nnc(-c3cc(F)c(OC[C@H](N)[C@H](C)OP(=O)(O)O)cc3Cl)s2)ccc1OC(C)C` ), measured EC50 is ≤ 10 nM
